Data credit: the RepoRT retention time repository

METHOD_SUMMARY: Waters XBridge BEH C18, 150 × 1 mm, 1.7 µm, 30 °C, 0.04 mL/min, estimated dead time 1.9 min; A: 79.7% water + 20% methanol + 0.3% acetic acid; B: 99.7% methanol + 0.3% acetic acid; gradient (min/%B) 0/0 17/58.7 17.2/100 20.2/100
CONDITION_SET: stereoisomer not certain
Measured LC retention time, listed per entry.

- COMPOUND: "CCOC(=O)C1C(OC(=O)c2ccccc2)CC2CCC1N2C (configuration not stated)"
  LC retention time [min]: 13.9
- COMPOUND: "COc1cccc(C2(O)CCCCC2CN(C)C)c1 (configuration not stated)"
  LC retention time [min]: 11.4
- COMPOUND: "Oc1ccc2c3c1OC1C(O)C=CC4C(C2)NCCC341 (configuration not stated)"
  LC retention time [min]: 3.5
- COMPOUND: "CNC(C)C(O)c1ccccc1 (configuration not stated)"
  LC retention time [min]: 5.9
- COMPOUND: "O=C1CN=C(c2ccccc2)c2cc([N+](=O)[O-])ccc2N1"
  LC retention time [min]: 19.8
- COMPOUND: "CN1C2CCC1C(C(=O)O)C(OC(=O)c1ccccc1)C2 (configuration not stated)"
  LC retention time [min]: 10.7
- COMPOUND: "CNC(C)Cc1ccccc1 (configuration not stated)"
  LC retention time [min]: 7.9
- COMPOUND: "c1ccc(CN2CCNCC2)cc1"
  LC retention time [min]: 4.3
- COMPOUND: "CCC(=O)OC(Cc1ccccc1)(c1ccccc1)C(C)CN(C)C (configuration not stated)"
  LC retention time [min]: 19.6
- COMPOUND: "CCOP(=O)(Sc1ccccc1)Sc1ccccc1"
  LC retention time [min]: 16.7
- COMPOUND: "Cc1ccccc1-n1c(C)nc2ccccc2c1=O"
  LC retention time [min]: 20.2
- COMPOUND: "COc1ccc2c3c1OC1C(O)CCC4C(C2)N(C)CCC341 (configuration not stated)"
  LC retention time [min]: 4.6
